Data provenance is ChEMBL document CHEMBL1800059.

I'd be grateful if you could share measured IC50 for these entries.
# tested on: Melanocortin receptor 4 (Homo sapiens, UniProt P32245)
# Sequence (P32245 whole entry): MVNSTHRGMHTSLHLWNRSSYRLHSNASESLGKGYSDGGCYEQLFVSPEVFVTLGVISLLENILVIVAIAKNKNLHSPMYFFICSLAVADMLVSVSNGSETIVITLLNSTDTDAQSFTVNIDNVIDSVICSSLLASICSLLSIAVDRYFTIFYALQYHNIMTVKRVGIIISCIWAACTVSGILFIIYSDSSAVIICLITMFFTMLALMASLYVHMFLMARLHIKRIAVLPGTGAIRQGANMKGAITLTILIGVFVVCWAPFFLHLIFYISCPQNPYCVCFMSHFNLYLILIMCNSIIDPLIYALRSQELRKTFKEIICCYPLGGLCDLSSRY
# test details: Displacement of [125I]-NDP-R-MSH from human MC4R expressed in CHO cells after 1.5 hrs by scintillation counting

mol	tested on	observed
Cc1cc2c(cc1Cl)C1(CCN(C(=O)[C@@H]3CN(C(C)(C)C)C[C@H]3c3ccc(F)cc3F)CC1)C[C@@H]2C(C)(C)C(=O)N1CC[C@@H](O)C1	Melanocortin receptor 4 (Homo sapiens, UniProt P32245)	0.53 nM
Cc1cc2c(cc1Cl)C1(CCN(C(=O)[C@@H]3CN(C(C)(C)C)C[C@H]3c3ccc(F)cc3F)CC1)C[C@@H]2C(C)(C)C(=O)N1CC[C@H](F)C1	Melanocortin receptor 4 (Homo sapiens, UniProt P32245)	1.4 nM

Continue with the next compound.
Recorded result, Cc1cc2c(cc1Cl)C1(CCN(C(=O)[C@@H]3CN(C(C)(C)C)C[C@H]3c3ccc(F)cc3F)CC1)C[C@@H]2C(C)(C)C(=O)NC1CC1 , IC50: 2.2 nM

----------
# tested on: Melanocortin receptor 4 (Homo sapiens, UniProt P32245)
# test details: Agonist activity at human MC4R expressed in CHO cells assessed as increase of alpha-MSH-stimulated cAMP release pretreated for 10 mins before alpha-MSH challenge measured after 40 mins
observation type: EC50 (nM)
Give bare numbers, in nM.

Consider the following illustrative entries.
mol	observation type	observed
CC(=O)N(C)C(C)(C)[C@@H]1CC2(CCN(C(=O)[C@@H]3CN(C(C)(C)C)C[C@H]3c3ccc(F)cc3F)CC2)c2cc(Cl)c(C)cc21	EC50	2.1
CCN(CC)C(=O)C(C)(C)[C@H]1CC2(CCN(C(=O)[C@@H]3CN(C(C)(C)C)C[C@H]3c3ccc(F)cc3F)CC2)c2cc(Cl)c(C)cc21	EC50	1.7

Continue with the next compound.
Recorded result, Cc1cc2c(cc1Cl)C1(CCN(C(=O)[C@@H]3CN(C(C)(C)C)C[C@H]3c3ccc(F)cc3F)CC1)C[C@@H]2C(C)(C)C(=O)NC(C)(C)CO , EC50: 1.9
